# Procedure Details: Cytotoxicity against human HuH7 cells assessed as cell viability at 20 uM after 3 days by XTT method relative to control
# Assay type: cell-based, Huh-7
# Run Conditions: read-out: Activity
Measured Endpoint: viability at 72 h, 20 µM (%)
Reply with just the number (in %).

Would you please look over these solved cases?
COc1ccc(-c2cc(-c3ccc4cc(F)ccc4n3)n(-c3ccc(F)cc3)n2)cc1 | 98.8
COc1ccc(-c2cc(-c3ccc4cc(F)ccc4n3)n(-c3ccc(S(N)(=O)=O)cc3)n2)cc1 | 83.7
Fc1ccc2nc(-c3cc(-c4ccccc4)nn3-c3ccccc3)ccc2c1 | 126
COc1ccc(-n2nc(-c3ccccc3)cc2-c2ccc3cc(F)ccc3n2)cc1 | 116
COc1ccc(-c2cc(-c3ccc4cc(F)ccc4n3)n(-c3ccc(OC)cc3)n2)cc1 | 95.8

Look up viability at 72 h, 20 µM of NS(=O)(=O)c1ccc(-n2nc(-c3ccccc3)cc2-c2ccc3cc(F)ccc3n2)cc1 and report it.
89.2

Look up viability at 72 h, 20 µM of Fc1ccc(-c2cc(-c3ccc4cc(F)ccc4n3)nn2-c2ccccc2)cc1 and report it.
88.3

Look up viability at 72 h, 20 µM of COc1ccc(-c2cc(-c3ccc4cc(F)ccc4n3)nn2-c2ccccc2)cc1 and report it.
95.6

Look up viability at 72 h, 20 µM of COc1ccc(-n2nc(-c3ccc(F)cc3)cc2-c2ccc3cc(F)ccc3n2)cc1 and report it.
89.1

Look up viability at 72 h, 20 µM of Fc1ccc(-n2nc(-c3ccccc3)cc2-c2ccc3cc(F)ccc3n2)cc1 and report it.
97.8

====

compounds and their reported CC50 at 72 h
# Procedure Details: Cytotoxicity against human HuH7 cells assessed as growth inhibition after 3 days by XTT method
# Format: cell-based, Huh-7

Would you please look over these solved cases?
COc1ccc(-c2cc(-c3ccc4cc(F)ccc4n3)n(-c3ccc(S(N)(=O)=O)cc3)n2)cc1 | > 200 µM
COc1ccc(-c2cc(-c3ccc4cc(F)ccc4n3)n(-c3ccc(F)cc3)n2)cc1 | > 200 µM

Attention now shifts to the item below.
Look up CC50 at 72 h of COc1ccc(-c2cc(-c3ccc4cc(F)ccc4n3)n(-c3ccc(OC)cc3)n2)cc1 and report it.
> 200 µM

====

# Procedure Details: Cytotoxicity against human HuH7 cells assessed as cell viability at 200 uM after 3 days by XTT method relative to control
# Format: cell-based, Huh-7
# Run Conditions: read-out: Activity
Measured Endpoint: viability at 72 h, 200 µM (%)
Reply with just the number (in %).

Fc1ccc(-c2cc(-c3ccc4cc(F)ccc4n3)nn2-c2ccccc2)cc1 | 89.7
NS(=O)(=O)c1ccc(-n2nc(-c3ccccc3)cc2-c2ccc3cc(F)ccc3n2)cc1 | 83.6
Fc1ccc(-c2cc(-c3ccc4cc(F)ccc4n3)n(-c3ccccc3)n2)cc1 | 87.5
Fc1ccc2nc(-c3cc(-c4ccccc4)n(-c4ccccc4)n3)ccc2c1 | 115

Look up viability at 72 h, 200 µM of COc1ccc(-n2nc(-c3ccc(F)cc3)cc2-c2ccc3cc(F)ccc3n2)cc1 and report it.
52.5

Look up viability at 72 h, 200 µM of COc1ccc(-c2cc(-c3ccc4cc(F)ccc4n3)n(-c3ccccc3)n2)cc1 and report it.
98.9

Look up viability at 72 h, 200 µM of Fc1ccc(-n2nc(-c3ccccc3)cc2-c2ccc3cc(F)ccc3n2)cc1 and report it.
91.6

Look up viability at 72 h, 200 µM of NS(=O)(=O)c1ccc(-n2nc(-c3ccc(F)cc3)cc2-c2ccc3cc(F)ccc3n2)cc1 and report it.
43

Look up viability at 72 h, 200 µM of COc1ccc(-c2cc(-c3ccc4cc(F)ccc4n3)nn2-c2ccccc2)cc1 and report it.
93.7

Look up viability at 72 h, 200 µM of COc1ccc(-c2cc(-c3ccc4cc(F)ccc4n3)n(-c3ccc(OC)cc3)n2)cc1 and report it.
98.4
